Cited source for all entries: ChEMBL document CHEMBL3576797

Provide the reported Vd of each item.
Assay: Volume of distribution in mouse at 0.5 mg/kg, iv by LC-MS/MS analysis
Format: ADME, organism-based
Conditions: in vivo
Answers are plain numbers, in L/kg.

Please review the following examples before continuing.
mol_smiles=CC(C)C(=O)N[C@H]1CC[C@H](Nc2ncc3ccc(=O)n(C(C)C)c3n2)CC1 reported_endpoint=Vd unit_label=L/kg reported_value=1.3
mol_smiles=CC(C)NC(=O)N[C@H]1CC[C@H](Nc2ncc3ccc(=O)n(C(C)C)c3n2)CC1 reported_endpoint=Vd unit_label=L/kg reported_value=1.8
mol_smiles=CCNC(=O)N[C@H]1CC[C@H](Nc2ncc3ccc(=O)n(C(C)C)c3n2)CC1 reported_endpoint=Vd unit_label=L/kg reported_value=1.9

Now look at this entry.
// Vd lookup, key: `CCNC(=O)N1CCC(Nc2ncc3ccc(=O)n(C(C)C)c3n2)CC1` 1

###

Provide the reported clearance of each item.
Assay: Clearance in mouse at 0.5 mg/kg, iv by LC-MS/MS analysis
Format: ADME, organism-based
Details: in vivo
Numbers only, in mL/min/kg.

Please review the following examples before continuing.
mol_smiles=CC(C)C(=O)N[C@H]1CC[C@H](Nc2ncc3ccc(=O)n(C(C)C)c3n2)CC1 reported_endpoint=clearance reported_value=33
mol_smiles=CCNC(=O)N1CCC(Nc2ncc3ccc(=O)n(C(C)C)c3n2)CC1 reported_endpoint=clearance reported_value=33
mol_smiles=CCNC(=O)N[C@H]1CC[C@H](Nc2ncc3ccc(=O)n(C(C)C)c3n2)CC1 reported_endpoint=clearance reported_value=72

Now look at this entry.
// clearance lookup, key: `CC(C)NC(=O)N[C@H]1CC[C@H](Nc2ncc3ccc(=O)n(C(C)C)c3n2)CC1` 28

###

Experiment: Oral bioavailability in mouse at 3 mg/kg by LC-MS/MS analysis
Assay type: ADME, organism-based
Details: in vivo
Provide the reported bioavailability of each item.
Give bare numbers, in %.

Please review the following examples before continuing.
mol_smiles=CC(C)NC(=O)N[C@H]1CC[C@H](Nc2ncc3ccc(=O)n(C(C)C)c3n2)CC1 reported_endpoint=bioavailability reported_value=87
mol_smiles=CC(C)C(=O)N[C@H]1CC[C@H](Nc2ncc3ccc(=O)n(C(C)C)c3n2)CC1 reported_endpoint=bioavailability reported_value=66
mol_smiles=CCNC(=O)N1CCC(Nc2ncc3ccc(=O)n(C(C)C)c3n2)CC1 reported_endpoint=bioavailability reported_value=43

Required: bioavailability, one value per compound below.
1. CC(C)n1c(=O)ccc2cnc(N[C@H]3CC[C@H](O)CC3)nc21
2. CCNC(=O)N[C@H]1CC[C@H](Nc2ncc3ccc(=O)n(C(C)C)c3n2)CC1

[10, 100]

###

Provide the reported AUC of each item.
Assay: AUC in mouse at 0.5 mg/kg, iv by LC-MS/MS analysis
Format: ADME, organism-based
Conditions: in vivo
Give bare numbers, in µM·h.

Please review the following examples before continuing.
mol_smiles=CC(C)C(=O)N[C@H]1CC[C@H](Nc2ncc3ccc(=O)n(C(C)C)c3n2)CC1 unit_label=µM·h reported_value=0.7
mol_smiles=CCNC(=O)N1CCC(Nc2ncc3ccc(=O)n(C(C)C)c3n2)CC1 unit_label=µM·h reported_value=0.7
mol_smiles=CCNC(=O)N[C@H]1CC[C@H](Nc2ncc3ccc(=O)n(C(C)C)c3n2)CC1 unit_label=µM·h reported_value=0.3

Now look at this entry.
// AUC lookup, key: `CC(C)NC(=O)N[C@H]1CC[C@H](Nc2ncc3ccc(=O)n(C(C)C)c3n2)CC1` 0.8
